- study target: hCB2R (Homo sapiens (Human))
- method description: TR-FRET hCB2R Binding Assay
- conditions used: SNAP-tagged human CB2R HEK293-TR cell membranes, TR-FRET (HTRF) detection, nonspecific binding with 1 μM SR144528; read-out: Kd hCB2R
measure name: Kd (nM)
Express it in nM; write the number only.

COc1cc(C(C)(C)CCCCCCN=[N+]=[N-])cc(OC)c1[C@H]1C=C(CNC(=O)CCCCCCNC(=O)c2ccc(=O)n(S(=O)(=O)c3cccc(C(=O)NCc4cn(CCOCCNc5ccc([N+](=O)[O-])c6nonc56)nn4)c3)c2)[C@H]2C[C@@H]1C2(C)C 22.9
CCCCCCC(C)(C)c1cc(OC)c([C@H]2C=C(CNC(=O)CCCCCCNC(=O)c3ccc(=O)n(S(=O)(=O)c4cccc(C(=O)NCc5cn(CCOCCNc6ccc([N+](=O)[O-])c7nonc67)nn5)c4)c3)[C@H]3C[C@@H]2C3(C)C)c(OC)c1 24.2
CCN(CC)c1ccc2cc(C=Cc3ccc(S(=O)(=O)[O-])c[n+]3CCCCCC(=O)NCCOCCn3cc(CNC(=O)c4cccc(S(=O)(=O)n5cc(C(=O)NCCCCCCC(=O)NCC6=C[C@H](c7c(OC)cc(C(C)(C)CCCCCCN=[N+]=[N-])cc7OC)[C@@H]7C[C@H]6C7(C)C)ccc5=O)c4)nn3)c(=O)oc2c1 59

Shift focus to the following entry.
Name the recorded Kd of the item `COc1cc(C(C)(C)CCCCCCN=[N+]=[N-])cc(OC)c1[C@H]1C=C(CNC(=O)CCCCCCNC(=O)c2ccc(=O)n(S(=O)(=O)c3cccc(C(=O)NCc4cn(CCOCCOCCOCCOCCNc5ccc([N+](=O)[O-])c6nonc56)nn4)c3)c2)[C@H]2C[C@@H]1C2(C)C` in your answer.
4.5
